# test-target: UniProt P05177
# Sequence (P05177 whole entry): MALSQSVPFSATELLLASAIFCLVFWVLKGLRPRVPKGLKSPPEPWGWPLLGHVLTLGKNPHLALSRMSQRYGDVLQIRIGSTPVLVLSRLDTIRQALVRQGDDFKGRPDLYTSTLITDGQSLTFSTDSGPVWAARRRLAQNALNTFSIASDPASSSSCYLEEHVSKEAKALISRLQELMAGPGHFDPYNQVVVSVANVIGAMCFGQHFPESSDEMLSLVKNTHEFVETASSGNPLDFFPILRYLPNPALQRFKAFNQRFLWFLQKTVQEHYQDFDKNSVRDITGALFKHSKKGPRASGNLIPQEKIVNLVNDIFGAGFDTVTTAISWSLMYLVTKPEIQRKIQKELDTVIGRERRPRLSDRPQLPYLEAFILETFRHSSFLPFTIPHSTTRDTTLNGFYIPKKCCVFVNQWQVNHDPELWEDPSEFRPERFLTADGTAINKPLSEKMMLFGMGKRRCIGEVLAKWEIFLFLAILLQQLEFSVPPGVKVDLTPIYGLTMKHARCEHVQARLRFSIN
# assay-info: CYP450 inhibition in pooled human liver microsomes, CYP-specific probe substrates
# Assay type: in vitro ADME
# experimental-parameters: pooled HLM, NADPH, CYP-specific probe substrate
recorded-metric: IC50

# compound, IC50
measured = [
    ("Cc1nc2sc3c(NC4CC4)nncc3c2c(C)c1Cl.Cl [Compound 22i]", "< 100 nM"),
    ("Cc1c(Cl)cnc2sc3c(N4CC5(COC5)C4)ncnc3c12 [Compound 15h]", "640 nM"),
    ("Cc1nc2sc3c(NC4CC(F)(F)C4)nncc3c2c(C)c1Cl.Cl [Compound 22k]", "980 nM"),
    ("Cc1c(Cl)cnc2sc3c(N4CC(C#N)C4)ncnc3c12 [Compound 15f]", "360 nM"),
]

*Q* Return reported IC50; argument: Cc1c(Cl)cnc2sc3c(NC4CC(c5ccncc5)C4)ncnc3c12 (centres unmarked) [Compound 15e]
*A* 1500 nM

----------
# test-target: CYP 2D6 (Homo sapiens)
# Sequence (P10635 whole entry): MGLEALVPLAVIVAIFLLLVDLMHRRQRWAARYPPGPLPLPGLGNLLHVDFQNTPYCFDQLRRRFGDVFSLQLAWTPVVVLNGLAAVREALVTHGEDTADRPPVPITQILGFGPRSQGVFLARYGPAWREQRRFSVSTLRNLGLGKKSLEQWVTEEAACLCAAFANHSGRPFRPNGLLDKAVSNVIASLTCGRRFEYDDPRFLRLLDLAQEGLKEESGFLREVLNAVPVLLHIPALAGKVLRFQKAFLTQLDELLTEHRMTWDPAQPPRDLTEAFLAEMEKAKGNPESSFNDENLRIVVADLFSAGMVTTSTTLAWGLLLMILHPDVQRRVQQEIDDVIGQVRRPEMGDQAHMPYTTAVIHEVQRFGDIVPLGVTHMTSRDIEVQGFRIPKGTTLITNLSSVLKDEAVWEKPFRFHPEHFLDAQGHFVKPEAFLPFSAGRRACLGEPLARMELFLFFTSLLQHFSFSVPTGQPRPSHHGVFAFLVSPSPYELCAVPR
# assay-info: CYP450 inhibition in pooled human liver microsomes, CYP-specific probe substrates
# Format: in vitro ADME
# experimental-parameters: pooled HLM, NADPH, CYP-specific probe substrate
Can you tell me pIC50 for the items I'm about to list?
One number for each entry, as −log10 of the molar value.

# molecule, recorded-metric, measurement
data = [
    ("Cc1nc2sc3c(NC4CC4)nncc3c2c(C)c1Cl.Cl [Compound 22i]", "pIC50", 5.10),
    ("Cc1nc2sc3c(NC4CCC4)nncc3c2c(C)c1Cl.Cl [Compound 22j]", "pIC50", 4.72),
    ("Cc1nc2sc3c(NC4CC(F)(F)C4)nncc3c2c(C)c1Cl.Cl [Compound 22k]", "pIC50", 4.60),
]

Next up:
*Q* Return reported pIC50; argument: Cc1c(Cl)cnc2sc3c(NC4CC(c5ccncc5)C4)ncnc3c12 (stereo not shown) [Compound 15e]
*A* 6.48

----------
# assay-info: Binding in plasma from human, equilibrium dialysis
# Type: in vitro ADME
# experimental-parameters: human, plasma, read-out: human fu,plasma
recorded-metric: fraction unbound at 6 h, 5 µM
One number for each entry.

# compound, recorded-metric, measurement
rows = [
    ("Cc1nc2sc3c(NC4CC(F)(F)C4)nncc3c2c(C)c1Cl.Cl [Compound 22k]", "fraction unbound at 6 h, 5 µM", 0.01),
    ("Cc1nc2oc3c(NC4CC4(C)C)ncnc3c2c(C)c1Cl.Cl (stereo not shown) [Compound 14p]", "fraction unbound at 6 h, 5 µM", 0.004),
]

*Q* Return reported fraction unbound at 6 h, 5 µM; argument: Cc1c(Cl)cnc2sc3c(NC4CC4)ncnc3c12 [Compound 15g]
*A* 0.01

----------
Can you tell me hM4 %ACh Max for the items I'm about to list?
# test-target: human M4 (hM4) (Homo sapiens)
# Sequence (P08173 1-479): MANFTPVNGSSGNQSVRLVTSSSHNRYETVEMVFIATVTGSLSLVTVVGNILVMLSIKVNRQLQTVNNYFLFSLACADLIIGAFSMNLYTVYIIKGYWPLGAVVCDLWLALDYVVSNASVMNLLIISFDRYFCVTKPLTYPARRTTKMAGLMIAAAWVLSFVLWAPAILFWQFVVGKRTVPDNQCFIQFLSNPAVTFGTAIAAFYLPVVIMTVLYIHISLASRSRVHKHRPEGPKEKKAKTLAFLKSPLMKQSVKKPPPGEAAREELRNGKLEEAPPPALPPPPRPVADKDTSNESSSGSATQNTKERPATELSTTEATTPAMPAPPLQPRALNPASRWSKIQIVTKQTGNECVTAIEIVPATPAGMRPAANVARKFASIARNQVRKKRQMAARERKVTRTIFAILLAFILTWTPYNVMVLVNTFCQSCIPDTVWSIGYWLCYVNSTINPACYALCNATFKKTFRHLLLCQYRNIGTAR
# assay-info: Calcium mobilization assay, hM4/Gqi5-CHO cells, with EC20 acetylcholine (PAM)
# experimental-parameters: hM4/Gqi5-CHO cells, calcium mobilization, EC20 acetylcholine; maximum response
Give bare numbers, in %.

Recorded hM4 %ACh Max, per entry:
# molecule, test-target, units-text, measurement
data = [
    ("Cc1c(Cl)cnc2sc3c(NC4CC4)ncnc3c12 [Compound 15g]", "human M4 (hM4) (Homo sapiens)", "%", 110),
    ("Cc1c(Cl)cnc2sc3c(NCc4ccncc4)ncnc3c12 [Compound 15d]", "human M4 (hM4) (Homo sapiens)", "%", 84),
    ("Cc1c(Cl)cnc2sc3c(NC4(C)CC4)ncnc3c12 [Compound 15b]", "human M4 (hM4) (Homo sapiens)", "%", 51),
    ("Cc1nc2sc3c(NC4CC(c5ccncc5)C4)ncnc3c2c(C)c1Cl.Cl (centres unmarked) [Compound 13h]", "human M4 (hM4) (Homo sapiens)", "%", 84),
]

Next up:
*Q* Return reported hM4 %ACh Max; argument: Cc1nc2sc3c(N4CC5(COC5)C4)ncnc3c2c(C)c1Cl.Cl [Compound 13d]
*A* 71

The values you see were collected from paper PMC11318023.
